Test: BSK_LPS_PGE2: BioMAP Diversity Plus: LPS Assay for Prostaglandin E2 (PGE2) Biomarker Activity (AID 2283082)
Settings: primary human HUVEC with PBMC; actives raise or lower the signal
The source made the active and inactive calls. The calls were made as follows: active = hit-call score of the fitted dose curve at least 0.9, where 1 is the maximum; inactive = score below 0.9.
Outcome (select one): active, inactive

Example entries begin here.
>>> answer_label("CCCSP(=O)(OCC)Oc1ccc(Br)cc1Cl (configuration not stated)")
"inactive"
>>> answer_label("CCCCOC(=O)c1ccccc1C(=O)O")
"inactive"
>>> answer_label("CC(C1CC1)C(O)(Cn1cncn1)c1ccc(Cl)cc1 (configuration not stated)")
"inactive"

[in] What is the recorded call for this compound in the test? "Nc1nc(N)nc(NC2CC2)n1"
[out] inactive

[in] What is the recorded call for this compound in the test? "CNC(=O)ON=C(C)SC"
[out] active

[in] What is the recorded call for this compound in the test? "Cc1cc(C2CC2)nc(Nc2ccccc2)n1"
[out] active

[in] What is the recorded call for this compound in the test? "CCCCN(CC)c1c([N+](=O)[O-])cc(C(F)(F)F)cc1[N+](=O)[O-]"
[out] inactive

[in] What is the recorded call for this compound in the test? CCOP(=S)(Oc1cnc(C(C)(C)C)nc1)OC(C)C (configuration not stated)
[out] active

[in] What is the recorded call for this compound in the test? "C[N+]1(C)CCCCC1"
[out] inactive

Recorded values, source PubChem BioAssay (EPA / NIEHS).
